# Test system: UO-31 renal
# measurement_notes: NCI tumour cell line growth inhibition, 48 h
Reported log10 TGI values are given for each entry in this list.
endpoint: log10 TGI (log10 of the value in µM)

* COc1ccc(C2CC(c3cc(OC)c(OC)c(OC)c3)=NO2)cc1OCCCCOc1cc2c(cc1OC)C(=O)N1CCC[C@H]1C=N2 (stereo partly specified) | 0.80
* COc1cc(C2c3[nH]c4ccccc4c3C[C@H]3COC(=O)N23)cc(OC)c1OC (stereo partly specified) | 1.70
* CC(C)(C)c1cc(CC2C(=O)c3ccccc3C2=O)cc(C(C)(C)C)c1O | 1.02
* CN(C)c1ccc(/C=c2/c3ccccc3n3c2c2ccccc2[n+]3C)cc1 | 0.59
* CN1N=CSC12C(=O)N(c1ccc(Cl)cc1)C(=O)N2c1ccc(Cl)cc1 (stereo unspecified) | 0.91
* CCSCC1CC(O)(c2ccccc2)C(c2ccccc2)C(c2ccc(Cl)cc2)O1 (stereo unspecified) | 0.39
* CC(=O)NCCc1c2c(c3nccc4c3c1Nc1ccccc1-4)OCS2 | 0.80
* COc1ccc2nc3cc(Cl)ccc3c(NCCCN(Cc3cc(OC)c(OC)c(OC)c3)Cc3cc(OC)c(OC)c(OC)c3)c2c1 | 1.42
* COC(=O)c1c2c(cc3c1CC1(Cc4cc5c(c(C=O)c4C1)CCCC5)C3)CCCC2 (stereo unspecified) | -0.57

###

Reported TGI values are given for each entry in this list.
# Test system: SF-268 CNS
# measurement_notes: NCI tumour cell line growth inhibition, 48 h
endpoint: TGI

• CC1(C)CCC[C@@]2(C)C1CCC1(C)C(CCc3ccoc3)/C(=C/OS(=O)(=O)O)CCC12 (stereo not given in full) (tested in a mixture with another compound) = > 100 µM
• NCCNc1c2c(c(NCCN)c3c(CO)c[nH]c13)C(=O)c1ccccc1C2=O = 6.42 µM
• CN(C)CCOc1ccc2[nH]c(C(=O)N3CC(CCl)c4c3cc(N)c3ccccc43)cc2c1 (stereo not given) = > 4.64 µM
• COc1cccc2c1C(=O)C=CC2=O = 19.8 µM
• F = > 6870 µM
• COc1cc(C2c3[nH]c4ccccc4c3C[C@H]3COC(=O)N23)cc(OC)c1OC (stereo not given in full) = > 100 µM
• CCOC(=O)CN1C(=O)c2c(c(C)n(-c3ccccc3)c2C)C1=O = > 100 µM
• NCC(=O)NC1(c2cc3ccccc3s2)CCCCC1 = > 100 µM
• O=C(/C=C1\N=C(c2ccccc2)N(c2nc3ccc(Sc4ccccc4)cc3[nH]2)C1=O)/C=C/c1ccccc1 = > 100 µM
• O=C(NC1CCN(Cc2ccccc2)CC1)c1cc(-c2ccncc2)nc2ccc(Cl)cc12 = > 100 µM

###

Reported TGI values are given for each entry in this list.
# Tested on: MOLT-4 leukemia
# measurement_notes: NCI tumour cell line growth inhibition, 48 h
endpoint: TGI

* O=C1c2c(Cl)c(Cl)c(Cl)c(Cl)c2C(=O)N1CCN(c1c(Cl)ssc1=O)c1c(Cl)ssc1=O | 37.7 µM
* COc1cc(C=O)ccc1Oc1nnnn1-c1ccccc1 | 75.1 µM
* COc1ccc(OC)c(/C=N/NC(=O)Cc2csc3nc(-c4ccc(Br)cc4)cn23)c1 | 8.08 µM
* N#CN=C(N)c1sc2nc3c(c(-c4ccc(Br)cc4)c2c1N)CCCC3 | > 100 µM
* CCC(C)n1c(C)nc2c1C(=O)c1ccccc1C2=O (stereo not given) | > 100 µM
* Oc1ccc(-c2csc(NNC3=NC/C(=C/c4ccc5c(c4)OCO5)S3)n2)cc1O | > 100 µM
* COc1ccccc1/C=C/C1=NN(c2cccc(S(=O)(=O)O)c2)C2(C1)SCC(=O)N2c1nc2ccccc2s1 (stereo not given) | > 100 µM
* CC1CC(C)C(O)C(C2CC(CC(=O)NC3CCCCC3)CC(=O)O2)C1 (stereo not given) | > 100 µM
* O=C(/C=C/c1ccc(OCCCOc2ccc(/C=C/C(=O)c3ccccc3)cc2)cc1)c1ccccc1 | > 100 µM
* CC1CC[C@]2(C(=O)O)CCC3(COC(=O)/C=C\c4ccc(O)cc4)C(=CCC4[C@@]5(C)CC[C@H](O)C(C)(C)C5CC[C@]43C)[C@@H]2[C@H]1C (stereo not given in full) | > 100 µM

###

# System: A498 renal
# measurement_notes: NCI tumour cell line growth inhibition, 48 h
endpoint: TGI (µM)

- FC(F)(F)Oc1cccc(-c2cnc3ccc(-c4ccncc4)nn23)c1: 2.42
- Cc1ccccc1C(=O)c1c(O)c2c(c(O)c1Br)CCCC2: 43.7
- CC(C)(C)c1cc(CC2C(=O)c3ccccc3C2=O)cc(C(C)(C)C)c1O: 47.7

###

# Tested on: 786-0 renal
# measurement_notes: NCI tumour cell line growth inhibition, 48 h; in the data active = GI50 below about 0.43 µM; inactive = the rest
Labels: yes (1) for active, no (0) for inactive

• Cc1nc(-c2cccc(Nc3nc(-c4ccc(Cl)cc4)cs3)c2)cs1 = no (0)
• COc1ccccc1NC(=O)c1sc2nc3c(cc2c1N)C(=O)CCC3 = no (0)
• C=CC[n+]1c(/C=C/C=C2\N(C)c3ccccc3C2(C)C)sc2ccc(OC)cc21 = yes (1)
• Nc1ccc2c(c1)C(=O)C(=O)c1c-2nc2ccccn12 = no (0)

###

# Tested on: OVCAR-3 ovarian
# measurement_notes: NCI tumour cell line growth inhibition, 48 h
*1 amine or outer side, *2 acyl side, *3 side chain or, on linkers, in order; H or OH if unused. Where a SMILES comes first, the peptide text is derived from it. [ ]: non-standard residue; d: D form. The star is where a group is joined. X31 = CC(=O)N(C)SCC(N[*:1])C(=O)[*:2]; X47 = CC(=O)N(C)SCC(N*)/C(O)=N\O; Cbz = O=C(OCc1ccccc1)*; Bn = c1ccc(C*)cc1; For = O=C*
Reported TGI values are given for each entry in this list.
endpoint: TGI

* O=C(O)c1cc2ccccc2c(N=Nc2ccccc2)c1O | > 100 µM
* CCc1ccc(N=Cc2cc(OC)c(OC)c(OC)c2)cc1 | > 100 µM
* C=CCN1CCC(OC(=O)C(O)(C#CC)C2CCCC2)CC1 (stereo not given) | > 100 µM
* O=C1OC[C@@H]2[C@@H](O)CCCCCN12 | > 100 µM
* CCOC(=O)CN1C(=O)c2c(c(C)n(-c3ccccc3)c2C)C1=O | > 100 µM
* CN1C(=O)CC(c2cccc(C3CC(=O)N(C)C3=O)n2)C1=O (stereo not given) | > 100 µM
* COc1cc2c[n+](C)c3c4cc(OC)c(OC)cc4c(OC)cc3c2cc1OC | > 34.6 µM
* CC12CCC3C(CCC4Cc5[nH]c6ccccc6c5CC43C)C1CCC2O (stereo not given) | 0.719 µM
* CC(=O)N(C)SCC(NC(=O)C(Cc1ccccc1)NC(=O)OCc1ccccc1)C(=O)NC(Cc1ccccc1)C(=O)NC(Cc1cn(C=O)c2ccccc12)C(=O)NC(CCCCNC(=O)OCc1ccccc1)C(=O)NC(C(=O)NC(CSN(C)C(C)=O)/C(O)=N\O)C(C)OCc1ccccc1 (stereo not given) (Cbz-F[X31]FW(For)K(Cbz)T(Bn)-X47; configuration not given here) | > 100 µM
* CCCCC[C@H](O)/C=C/[C@@H]1[C@@H](C/C=C\CCCC(=O)O)[C@@H](O)C[C@H]1O | > 100 µM
* CC(=O)ON(C(C)=O)c1ccc(-c2nc3ccccc3s2)cc1 | 66.7 µM
* N/C(=N\N=C/c1ccccc1O)NO | > 100 µM
* Cc1ccccc1NC(=O)C(=O)C(C#N)c1ccc(Cl)cc1 (stereo not given) | > 100 µM
* C=C(C)C(=O)O[C@H]1C/C(CO)=C/CCC(=C)C(OC(C)=O)[C@H]2OC(=O)C(=C)[C@H]12 (stereo not given in full) | 18.7 µM
* CCOC(=O)Nc1cc2nnc(-c3ccccc3)nc2c(N)n1 | 48.8 µM
* CC(NS(=O)(=O)c1ccc([N+](=O)[O-])cc1)C(=O)O (stereo not given) | > 100 µM
* CCCCCC(C)(C)CCC(=O)OC1OC(COC2OC(COC3OC(CO)C(O)C(O)C3O)C(O)C(O)C2O)C(O)C(O)C1O (stereo not given) | > 100 µM
* CC1(C)CC23C4COC(=O)C2CCC1C3CC4=O (stereo not given) | 27.7 µM
* CC1(C)[C@H](C(=O)O)N2C(=O)[C@@H](NS(=O)(=O)c3ccc([N+](=O)[O-])cc3)[C@H]2S1(=O)=O | > 100 µM
* O=C1[C@@H]2C(c3ccccc3Br)=NO[C@@H]2C(=O)N1c1ccc(Cc2ccc(N3C(=O)[C@H]4C(c5ccccc5Br)=NO[C@H]4C3=O)cc2)cc1 | > 100 µM
